// values below are reported Autosampler for 24 h Accuracy (%)
TEST_DESCRIPTION: Stability of analytes in rat plasma (auto-sampler, freeze-thaw, room temperature, long-term)
STUDY_CONDITIONS: 1.56 ng/mL, autosampler 24 h
ENDPOINT_NAME: Autosampler for 24 h Accuracy (%)

O=C(O)c1ccc(O)c(O)c1    103.0
O=C(O)[C@H]1O[C@@H](Oc2cc(O)c3c(=O)cc(-c4ccc(O)cc4)oc3c2)[C@H](O)[C@@H](O)[C@@H]1O [apigenin-7-O-glucuronide]    103.0
O=C(/C=C/c1ccc(O[C@@H]2O[C@H](CO)[C@@H](O)[C@H](O)[C@H]2O)cc1)c1ccc(O)cc1O    99.3
C[C@@H]1O[C@@H](Oc2c(-c3ccc(O)c(O)c3)oc3cc(O)cc(O)c3c2=O)[C@H](O)[C@H](O)[C@H]1O    95.2
C[C@]1(OC(=O)/C=C/c2ccccc2)C[C@@H](O)[C@]2(O)C=CO[C@@H](O[C@@H]3O[C@H](CO)[C@@H](O)[C@H](O)[C@H]3O)[C@@H]21 [harpagoside]    105.0
O=c1c(O[C@@H]2O[C@H](CO)[C@H](O)[C@H](O)[C@H]2O)c(-c2ccc(O)c(O)c2)oc2cc(O)cc(O)c12 [hyperoside]    111.0

----------
TEST_DESCRIPTION: Stability of analytes in rat plasma (auto-sampler, freeze-thaw, room temperature, long-term)
STUDY_CONDITIONS: 1.56 ng/mL, three freeze-thaw cycles
ENDPOINT_NAME: Freeze thaw cycles Accuracy (%)

O=C(O)c1ccc(O)c(O)c1    103.0
O=C1C[C@@H](c2ccc(O[C@@H]3O[C@H](CO)[C@@H](O)[C@H](O)[C@H]3O)cc2)Oc2cc(O)ccc21    110.0
O=c1cc(-c2ccc(O)cc2)oc2c([C@@H]3O[C@H](CO)[C@@H](O)[C@H](O)[C@H]3O)c(O)cc(O)c12    103.0
C[C@]1(OC(=O)/C=C/c2ccccc2)C[C@@H](O)[C@]2(O)C=CO[C@@H](O[C@@H]3O[C@H](CO)[C@@H](O)[C@H](O)[C@H]3O)[C@@H]21 [harpagoside]    91.5

----------
// values below are reported MRT last
TEST_DESCRIPTION: Pharmacokinetic study in rat plasma after oral administration of QJYQ (UHPLC-sMRM)
Assay type: in vivo, Sprague-Dawley rats
STUDY_CONDITIONS: male, Sprague-Dawley; rat plasma, oral QJYQ 3.15 g/kg, n = 8, mean ± SD; read-out: MRT(0-t)
ENDPOINT_NAME: MRT last (h)

COc1c(O)cc(O)c2c(=O)cc(-c3ccccc3)oc12    8.27
CC1(C)[C@@H](O[C@H]2O[C@H](C(=O)O)[C@@H](O)[C@H](O)[C@H]2O[C@@H]2O[C@H](C(=O)O)[C@@H](O)[C@H](O)[C@H]2O)CC[C@]2(C)[C@H]3C(=O)C=C4[C@@H]5C[C@@](C)(C(=O)O)CC[C@]5(C)CC[C@@]4(C)[C@]3(C)CC[C@@H]12    5.3
COc1ccc(/C=C/C(=O)O)cc1O    5.25
O=C(O)c1ccc(O)c(O)c1    5.3
O=C(O)[C@H]1O[C@@H](Oc2cc3oc(-c4ccccc4)cc(=O)c3c(O)c2O)[C@H](O)[C@@H](O)[C@@H]1O    8.45
O=C(O)C=Cc1ccc(O)cc1    3.03

Origin of measurements: paper PMC10133546
